Assay: Stability in human serum assessed as degradation after 3 hrs by HPLC analysis
Type: ADME, cell-free
Conditions: read-out: Drug degradation
Where a SMILES comes first, the peptide text is derived from it.
parameterMeasured: metabolised at 3 h

Quick check: metabolised at 3 h of CC[C@H](C)[C@H](NC(=O)[C@H](C)NC(=O)[C@H](CCCCN)NC(=O)CNC(=O)[C@H](Cc1ccc(O)cc1)NC(=O)[C@H](Cc1ccc(O)cc1)NC(=O)[C@H](CCCCN)NC(=O)[C@H](Cc1ccccc1)NC(=O)[C@@H](N)Cc1c[nH]c2ccccc12)C(=O)N[C@@H](Cc1ccc(O)cc1)C(=O)O (H-WFKYYGKAIY-OH) ?
100%
